B1: TSN (parent)
chain: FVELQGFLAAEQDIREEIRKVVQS

Variants of: B1
test_protocol: protein stability index of a GFP-peptide fusion (GPS, HEK-293T) (PSI 1-6); higher = more stable;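 further: lentivirally expressed fusions sorted by FACS into six bins by GFP to DsRed ratio, PSI derived from sequencing read proportions per bin multiplied by bin number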
experimental_conditions: c terminus: a fixed tail appended
Would you mind telling me the reported protein stability index of each entry?
Answers are plain numbers.

Some solved entries appear below for comparison.
AVELQGFLAAEQDIREEIRKVVQS [F1A] | 3.48
FVELQGVLAAEQDIREEIRKVVQS [F7V] | 2.04
FVELQGFLAAEQNIREEIRKVVQS [D13N] | 3.27

For every item below, please supply its protein stability index.
1. IVELQGFLAAEQDIREEIRKVVQS [F1I]
2. FVELQGFLAAYQDIREEIRKVVQS [E11Y]
3. FVELQGFLAAEQDICEEIRKVVQS [R15C]
4. FVELQGELAAEQDIREEIRKVVQS [F7E]

Result block:
2.08
2.09
1.82
3.11

Please state, for each entry, its recorded protein stability index.
1. FVELQGFLAAEQDIREYIRKVVQS [E17Y]
2. FVELQGFLGAEQDIREEIRKVVQS [A9G]

Result block:
[1.93, 1.62]

Go through the list and state protein stability index for each entry.
1. FVELQGFLAAEQDIREHIRKVVQS [E17H]
2. FVELQGFLAAEQDIREEIRMVVQS [K20M]
3. FVELQGFLAAEQDIREEIRKVVQL [S24L]
4. FVKLQGFLAAEQDIREEIRKVVQS [E3K]

Result block:
1: 2.3; 2: 1.89; 3: 3.92; 4: 1.4

For every record below, what is its protein stability index?
1. FKELQGFLAAEQDIREEIRKVVQS [V2K]
2. FVELQGFLAAEQDIREEIRKPVQS [V21P]

Result block:
1: 3.83; 2: 2.51

Give protein stability index for all variants that follow.
1. FVELQGFNAAEQDIREEIRKVVQS [L8N]
2. FVELQGFLAAEQDIREEINKVVQS [R19N]

Result block:
2.31
2.38

// input: 8 variants below; output: protein stability index for each
1. FVRLQGFLAAEQDIREEIRKVVQS [E3R]
2. YVELQGFLAAEQDIREEIRKVVQS [F1Y]
3. TVELQGFLAAEQDIREEIRKVVQS [F1T]
4. FVELQGFLAAEQDIREEIRKVVTS [Q23T]
5. FVELQGFLAAEQDIREEIRKIVQS [V21I]
6. FVELQGDLAAEQDIREEIRKVVQS [F7D]
7. FVELQGFLAAEQDIREEIRYVVQS [K20Y]
8. FVELQGFLAAEQDIREEIRKVVCS [Q23C]

Result block:
1. 1.25
2. 3.21
3. 3.62
4. 2.38
5. 3.69
6. 2.84
7. 2.21
8. 3.33

Each variant below has a recorded value; state its protein stability index.
1. FVELQGFLAAEQDIREEICKVVQS [R19C]
2. FVELQGFLAAEQDIREEIRKYVQS [V21Y]
3. FVELQGFLAAEQDIREEIRKVEQS [V22E]
4. FVELQGFLAAEQDILEEIRKVVQS [R15L]
5. FVELQGFLAAEQDIREELRKVVQS [I18L]
6. FVELCGFLAAEQDIREEIRKVVQS [Q5C]
7. FVELQGFLAARQDIREEIRKVVQS [E11R]
8. FVELQGFLAAEQDIREEIRKVVLS [Q23L]

Result block:
1: 2.32; 2: 1.68; 3: 2.23; 4: 2.35; 5: 2.87; 6: 5.07; 7: 2.52; 8: 1.92

Look at each variant and report its protein stability index.
1. FLELQGFLAAEQDIREEIRKVVQS [V2L]
2. FVELQGFLAREQDIREEIRKVVQS [A10R]
3. FVELQGFLAAEQDIRDEIRKVVQS [E16D]
4. FVELQGNLAAEQDIREEIRKVVQS [F7N]
5. FVELQGFLPAEQDIREEIRKVVQS [A9P]
6. FVELQGFLWAEQDIREEIRKVVQS [A9W]

Result block:
1.67
1.8
3.34
2.71
1.02
3.23
